# Study Target: hPPARgamma (Homo sapiens, UniProt P37231)
# Construct: 10x-histidine tag (N); made in house; host or cells: E. coli
# Sequence (P37231 223-503): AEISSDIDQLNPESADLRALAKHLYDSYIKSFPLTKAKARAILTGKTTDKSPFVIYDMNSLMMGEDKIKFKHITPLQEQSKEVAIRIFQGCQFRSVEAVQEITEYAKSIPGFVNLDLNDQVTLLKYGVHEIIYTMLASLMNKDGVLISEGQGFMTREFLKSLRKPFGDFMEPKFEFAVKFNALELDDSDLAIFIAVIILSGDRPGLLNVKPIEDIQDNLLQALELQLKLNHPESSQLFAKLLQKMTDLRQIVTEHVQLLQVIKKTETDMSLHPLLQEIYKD
# Assay Method Text: hPPARgamma Ligand Binding Assay
# Condition Parameters: PPARg Ki, competition with [3H]-BRL 49,653, room temperature 2 hrs
Structures can show the parent of a compound that is named as a salt.
Result Type: pKi
Give bare numbers, as −log10 of the molar value.

Answered examples (5):
# Molecule, pKi
records = [
    ("Cc1oc(-c2ccccc2)nc1CCOc1ccc(CC(Nc2ccccc2C(=O)c2ccc(CN(C)C)cc2)C(=O)O)cc1 (stereo not shown) [Example 81, hydrochloride]", 6.89),
    ("CC(=CC(=O)c1ccccc1)N[C@@H](Cc1ccc(OCCN(C)c2nc3ccccc3o2)cc1)C(=O)O [Example 17]", 7.10),
    ("CN(CCOc1ccc(CC(Nc2c(C(=O)C3CCCCC3)cnn2C)C(=O)O)cc1)c1nc2ccccc2o1 (stereo not shown) [Example 51]", 6.85),
    ("Cc1oc(-c2ccccc2)nc1CCOc1ccc(CC(Nc2ccccc2C(=O)c2cccc(CN)c2)C(=O)O)cc1 (stereo not shown) [Example 86, hydrochloride]", 6.19),
    ("O=C(c1ccccc1)c1ccsc1NC(Cc1ccc(OCc2ccccc2)cc1)C(=O)O (stereo not shown) [Example 8]", 7.68),
]

Hi there! I need pKi for each item below, if you can.
1. COc1cccc(C(=O)c2ccccc2NC(Cc2ccc(OCCN(C)c3nc4ccccc4o3)cc2)C(=O)O)c1 (stereo not shown) [Example 78]
2. CN(CCOc1ccc(CC(Nc2ccccc2C(=O)c2cccc(C(F)(F)F)c2)C(=O)O)cc1)c1nc2ccccc2o1 (stereo not shown) [Example 76]

7.40
6.96

====

# Study Target: hPPARgamma (Homo sapiens)
# Construct: 10x-histidine tag (N); made in house; host or cells: E. coli
# Assay Method Text: hPPARgamma Ligand Binding Assay
# Condition Parameters: PPARg Ki, competition with [3H]-BRL 49,653, room temperature 2 hrs
Result Type: pKi
Give bare numbers, as −log10 of the molar value.

# Compound, pKi
records = [
    ("Cc1oc(-c2ccccc2)nc1CCOc1ccc(C[C@H](Nc2ccccc2C(=O)c2cccnc2)C(=O)O)cc1 [Example 58]", 7.52),
    ("CN(CCOc1ccc(CC(Nc2ccccc2C(=O)C2CCCCCC2)C(=O)O)cc1)c1nc2ccccc2o1 (centres unmarked) [Example 49]", 7.10),
    ("O=C(c1ccccc1)c1ccccc1NC(Cc1ccc(OC[C@H]2CCCN2c2nc3ccccc3o2)cc1)C(=O)O (some centres unmarked) [Example 22]", 7.19),
    ("O=C(c1ccccc1)c1ccccc1NC(Cc1ccc(OCCc2cccnc2)cc1)C(=O)O (centres unmarked) [Example 123]", 6.55),
    ("CN(CCOc1ccc(CC(Nc2ccccc2C(=O)c2cccs2)C(=O)O)cc1)c1nc2ccccc2o1 (centres unmarked) [Example 74]", 6.10),
]

Hi there! I need pKi for each item below, if you can.
1. O=C(c1ccccc1)c1ccccc1N[C@@H](Cc1ccc(OC[C@@H]2CSCN2c2nc3ccccc3o2)cc1)C(=O)O [Example 72]
2. O=C(c1ccccc1)c1ccccc1NC(Cc1ccc(OC2CCN(c3nc4ccccc4o3)C2)cc1)C(=O)O (centres unmarked) [Example 55]
3. O=C(c1ccccc1)c1ccccc1NC(Cc1ccc(OCc2ccccc2)cc1)C(=O)O (centres unmarked) [Example 4]

7.52
5.85
6.00

====

# Study Target: hPPARgamma (Homo sapiens)
# Construct: 10x-histidine tag (N); made in house; host or cells: E. coli
# Assay Method Text: hPPARgamma Ligand Binding Assay
# Condition Parameters: competition with [3H]-BRL 49,653, room temperature 2 hrs; read-out: PPARg Ki
Structures can show the parent of a compound that is named as a salt.
Result Type: Ki
The answer consists of two parts: a number and, after it, its unit.

Need Ki, item Cc1oc(-c2ccccc2)nc1CCOc1ccc(CC(Nc2ccccc2C(=O)c2cccc(CN(C)C)c2)C(=O)O)cc1 (stereo not shown) [Example 87, hydrochloride]
1160 nM

====

# Test system: PPARg
# Assay Method Text: PPARgamma Transient Cotransfection Assay
# Format: cell-based
# Condition Parameters: CAT reporter
What PPARg Fold. Act. was measured for each of the following?
One number for each entry.

Answered examples (5):
# Molecule, PPARg Fold. Act.
rows = [
    ("COC(=O)[C@H](Cc1ccc(OCc2ccccc2)cc1)NC(C)=CC(=O)c1ccccc1", 23),
    ("CC(=CC(=O)c1ccccc1)N[C@@H](Cc1ccc(OCc2ccccc2)cc1)C(=O)O", 26),
    ("CC(=CC(=O)c1ccccc1)NC(Cc1ccc(OCCN(C)c2ccccn2)cc1)C(=O)O (centres unmarked)", 18),
    ("O=C(c1ccccc1)c1ccccc1NC(Cc1ccc(OCc2ccccc2)cc1)C(=O)O (centres unmarked)", 20),
    ("COC(=O)C(Cc1ccc(OCc2ccccc2)cc1)Nc1ccccc1C(=O)OCc1ccccc1 (centres unmarked)", 10),
]

Hi there! I need PPARg Fold. Act. for each item below, if you can.
1. COC(=O)C(Cc1ccc(OCc2ccccc2)cc1)Nc1ccccc1C(=O)Nc1ccccc1 (racemic)
2. O=C(C1=C(N[C@@H](Cc2ccc(OCc3ccccc3)cc2)C(=O)O)CCCC1)c1ccccc1
3. COC(=O)C(Cc1ccc(OCc2ccccc2)cc1)Nc1ccccc1C(=O)N1CCCCC1 (centres unmarked)

[4, 3, 5]

====

# Study Target: hPPARgamma (Homo sapiens)
# Construct: 10x-histidine tag (N); made in house; host or cells: E. coli
# Assay Method Text: hPPARgamma Ligand Binding Assay
# Condition Parameters: PPARg Ki, competition with [3H]-BRL 49,653, room temperature 2 hrs
Where a name gives a salt, the structure may show the parent alone.
Result Type: pKi
Answers are plain numbers, as −log10 of the molar value.

Answered examples (4):
# Molecule, Quantitative Result
records = [
    ("CN(CCOc1ccc(CC(Nc2ccccc2C(=O)C2CCCC2)C(=O)O)cc1)c1nc2ccccc2o1 (stereo not drawn)", 6.94),
    ("Cc1cc(-c2ccco2)nn1CCOc1ccc(C[C@H](Nc2ccccc2C(=O)c2ccccc2)C(=O)O)cc1", 7.52),
    ("Cc1oc(-c2ccccc2)nc1CCOc1ccc(CC(Nc2ccccc2C(=O)c2cccc(O)c2)C(=O)O)cc1 (stereo not drawn)", 8.30),
    ("CCOC(=O)C(Cc1ccc(OCCN(C)c2ccccn2)cc1)Nc1ccccc1C(=O)c1ccccc1 (stereo not drawn)", 5.89),
]

Hi there! I need pKi for each item below, if you can.
1. CN(CCOc1ccc(CC(Cc2ccccc2Br)C(=O)O)cc1)c1nc2ccccc2o1 (stereo not drawn) [Example 27, trifluoroacetate]
2. Cc1ccc(NC(Cc2ccc(OCCN(C)c3nc4ccccc4o3)cc2)C(=O)O)c(C(=O)c2ccccc2)c1 (stereo not drawn)
3. Cc1ccc(C(=O)c2ccccc2NC(Cc2ccc(OCCN(C)c3nc4ccccc4o3)cc2)C(=O)O)cc1 (stereo not drawn)
4. COC(=O)Nc1cccc(C(=O)c2ccccc2NC(Cc2ccc(OCCc3nc(-c4ccccc4)oc3C)cc2)C(=O)O)c1 (stereo not drawn)
5. Cc1oc(-c2ccccc2)nc1CCOc1ccc(CC(Nc2ccccc2C(=O)C2CCCCC2)C(=O)O)cc1 (single isomer, unassigned) [Example 53]
6. CN(CCOc1ccc(CC(Cc2ccccc2)C(=O)O)cc1)c1nc2ccccc2o1 (stereo not drawn) [Example 26, trifluoroacetate]
7. O=C(c1ccccc1)c1ccccc1NC(Cc1ccc(OC[C@@H]2CCCN2c2nc3ccccc3o2)cc1)C(=O)O (stereo partly drawn)
8. CN(CCOc1ccc(CC(Nc2ccccc2C(=O)c2ccccc2)C(=O)O)cc1)c1nc2ccccc2o1 (stereo not drawn) [Example 16]

[6.52, 6.73, 7.15, 6.55, 7.15, 5.72, 7.30, 7.70]

====

# Study Target: hPPARgamma (Homo sapiens, UniProt P37231)
# Construct: 10x-histidine tag (N); made in house; host or cells: E. coli
# Assay Method Text: hPPARgamma Ligand Binding Assay
# Condition Parameters: PPARg Ki, competition with [3H]-BRL 49,653, room temperature 2 hrs
Result Type: Ki (nM)
Numbers only, in nM.

# Compound, Result Type, Quantitative Result
records = [
    ("COC(=O)[C@H](Cc1ccc(OCc2ccccc2)cc1)NC(=O)c1coc2ccccc2c1=O", "Ki", 300),
    ("O=C(c1ccccc1)c1ccccc1N[C@@H](Cc1ccc(OCCSc2ccc(Cl)cc2)cc1)C(=O)O", "Ki", 200),
    ("CN(CCOc1ccc(CC(Nc2ccccc2C(=O)c2ccccc2)C(=O)O)cc1)c1nc2ccccc2o1 (stereo not drawn) [Example 15]", "Ki", 40),
]

Hi there! I need Ki for each item below, if you can.
1. O=C(c1ccccc1)c1ccccc1NC(Cc1ccc(OCc2csc(-c3ccc(Cl)cc3)n2)cc1)C(=O)O (stereo not drawn)
2. O=C(c1ccccc1)c1ccccc1NC(Cc1ccc(OCCn2cnc3ccccc32)cc1)C(=O)O (stereo not drawn)
3. COC(=O)[C@H](Cc1ccc(OCc2ccccc2)cc1)NC(C)=CC(=O)c1ccccc1
4. O=C(c1ccccc1)c1ccccc1NC(Cc1ccc(OC2CCN(c3nc4ccccc4o3)C2)cc1)C(=O)O (stereo not drawn) [Example 21]

1. 300
2. 145
3. 1000
4. 530

Hi there! I need Ki for each item below, if you can.
1. COC(=O)c1ccccc1N[C@@H](Cc1ccc(OCCc2ccc(OC(F)(F)F)cc2)cc1)C(=O)O
2. Cc1nnsc1-c1nc(CCOc2ccc(C[C@H](Nc3ccccc3C(=O)c3ccccc3)C(=O)O)cc2)c(C)s1

40
70
